src = patent US10144715B2

Biological target: Gal4 DNA binding domain fused to the LBD of LXRα in HEK293 cells (Homo sapiens (Human))
Sequence (Q13133 209-447): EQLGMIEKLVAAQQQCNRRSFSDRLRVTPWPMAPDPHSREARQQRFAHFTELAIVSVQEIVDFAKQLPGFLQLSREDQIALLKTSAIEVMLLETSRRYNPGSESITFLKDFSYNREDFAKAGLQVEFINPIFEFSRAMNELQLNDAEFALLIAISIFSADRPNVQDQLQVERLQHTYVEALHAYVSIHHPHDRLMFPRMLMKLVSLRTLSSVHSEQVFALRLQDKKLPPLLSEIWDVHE
Experiment: LXR luciferase transcriptional reporter gene assay, agonist mode, LXRα
Type: cell-based
Attribute: Cell LXRα efficacy

COMPOUND	Cell LXRα efficacy
CC(C)[C@@H]1CN(c2ccc(C#N)c(S(C)(=O)=O)c2)CCN1c1cccc(C(F)(F)F)n1 [7-38]	2960 (86) %
CC(C)[C@@H]1CN(c2ccc(F)c(S(C)(=O)=O)c2)CCN1c1nc2ccccc2o1 [7-52]	1018 (76) %
CC(C)C1CN(c2ccc(C#N)c(S(C)(=O)=O)c2)CCN1CC1CCC(C(F)(F)F)CC1 (stereo not shown) [50-2]	721 (72) %
CC[C@H](O)c1cnc(N2CCN(c3ccc(F)c(S(C)(=O)=O)c3)C[C@H]2C(C)C)nc1C(F)(F)F (single isomer, unassigned) [12-6]	2429 (43) %
CO[C@]1(C(F)(F)F)CC[C@@H](CN2CCN(c3ccc(CO)c(S(C)(=O)=O)c3)C[C@@H]2C(C)C)CC1 (single isomer, unassigned) [Cpd No 48-79]	6 (58) %
CC(C)[C@@H]1CN(c2ccc(CO)c(S(C)(=O)=O)c2)CCN1c1nc(C(F)(F)F)c(C(N)=O)s1 [17-35]	1738 (19) %
CS(=O)(=O)c1cccc(N2CCN(C[C@H]3CCN(CC(F)(F)F)C3)[C@H](c3ccccc3)C2)c1 (single isomer, unassigned) [48-60]	18622 (13) %

---

Molecular target: LXR α LBD protein (Homo sapiens (Human), UniProt Q13133)
Assay: Human LXRα coactivator recruitment FRET assay, agonist mode
Format: biochemical
Settings: agonist mode
Attribute: FRET LXRα efficacy

COMPOUND	FRET LXRα efficacy (%)
COC(=O)[C@@H]1CN(c2cccc(S(C)(=O)=O)c2)CCN1C(=O)OC(C)(C)C	67
CS(=O)(=O)c1cc(N2CCN(Cc3ccc(C(F)(F)F)nc3)C(c3ccccc3)C2)ccc1F (centres unmarked)	20
NS(=O)(=O)c1cccc(N2CCN(C[C@H]3CC[C@H](C(F)(F)F)CC3)[C@@H](c3ccccc3)C2)c1 (single isomer, unassigned)	33
Cc1ccc(CN2CCN(c3cccc(S(C)(=O)=O)c3)CC2c2ccccc2)cn1 (centres unmarked)	38
Cc1nc(N2CCN(c3ccc(F)c(S(C)(=O)=O)c3)C[C@H]2C(C)C)ncc1Cl	86
CS(=O)(=O)c1cccc(N2CCN(Cc3ccc(OC(F)(F)F)cc3)[C@@H](c3ccccc3)C2)c1 (single isomer, unassigned)	47
CC1(c2ccccc2)CN(c2cccc(S(C)(=O)=O)c2)CCN1Cc1ccc(C(F)(F)F)nc1 (centres unmarked)	10
CS(=O)(=O)c1cccc(N2CCN(Cc3ccc(C(F)(F)F)cc3)[C@@H](c3ccccc3)C2)c1 (single isomer, unassigned)	28
CC(C)[C@@H]1CN(c2cccc(S(C)(=O)=O)c2)CCN1c1ccc(C(F)(F)F)cn1	79
CC(C)[C@H]1CN(c2cccc(S(C)(=O)=O)c2)CCN1C(=O)OC(C)(C)C	82
CS(=O)(=O)c1cccc(N2CCN(Cc3ccccc3)C(c3ccccc3)C2)c1 (centres unmarked)	41

---

Target: Gal4 DNA binding domain fused to the LBD of LXRα in HEK293 cells (Homo sapiens (Human))
Experiment: LXR luciferase transcriptional reporter gene assay, agonist mode, LXRα
Assay type: cell-based
METRIC: Cell LXRα efficacy

COMPOUND	SYSTEM TESTED	RESULT
COC(=O)c1ccnc(N2CCN(c3ccc(F)c(S(C)(=O)=O)c3)C[C@H]2C(C)C)n1	Gal4 DNA binding domain fused to the LBD of LXRα in HEK293 cells (Homo sapiens (Human))	1102 (85) %
NS(=O)(=O)c1cccc(N2CCN(CC3CCN(CC(F)(F)F)CC3)[C@@H](c3ccccc3)C2)c1 (single isomer, unassigned)	Gal4 DNA binding domain fused to the LBD of LXRα in HEK293 cells (Homo sapiens (Human))	1964 (37) %
CC(C)(O)c1cnc(N2CCN(c3ccc(F)c(S(C)(=O)=O)c3)CC2C(C)(C)C)nc1C(F)(F)F (stereo not shown)	Gal4 DNA binding domain fused to the LBD of LXRα in HEK293 cells (Homo sapiens (Human))	1034 (28) %
CS(=O)(=O)c1cccc(N2CCN(C[C@H]3CC[C@]4(CC3)CC4(F)F)[C@H](c3ccccc3)C2)c1	Gal4 DNA binding domain fused to the LBD of LXRα in HEK293 cells (Homo sapiens (Human))	7222 (11) %
CO[C@H](C)[C@@H]1CN(c2ccc(CO)c(S(C)(=O)=O)c2)CCN1c1ncc(CO)c(C(F)(F)F)n1 (single isomer, unassigned)	Gal4 DNA binding domain fused to the LBD of LXRα in HEK293 cells (Homo sapiens (Human))	4667 (21) %
CS(=O)(=O)c1cccc(N2CCN(Cc3ccc(C(F)(F)F)nc3)C(c3ccc(F)cc3)C2)c1 (stereo not shown)	Gal4 DNA binding domain fused to the LBD of LXRα in HEK293 cells (Homo sapiens (Human))	3658 (17) %
CS(=O)(=O)c1cccc(N2CCN(Cc3ccc(C(F)(F)F)cc3)[C@@H](c3ccc(F)cc3)C2)c1	Gal4 DNA binding domain fused to the LBD of LXRα in HEK293 cells (Homo sapiens (Human))	2711 (31) %
